Reported growth AUC by item:
Test system: Eubacterium rectale
Test: growth AUC relative to DMSO control (median of replicates) (fraction); higher = more growth (less inhibition), active = hit call of the paper
Details: 20 µM; 24 h
Lab note: record just the number, no unit beside it.

>>> df
                                   compound  numeric_readout
0                           Nc1cccc(Cl)c1Cl            0.947
1                           Oc1cccc2cccnc12            0.904
2  C#CCN1C(=O)COc2cc(F)c(N3C(=O)C4=C(CCCC4)C3=O)cc21             1.09
3                CCOP(=S)(OCC)SCS(=O)(=O)CC             1.07
4                      c1cc2c3c(cccc3c1)CC2             1.05

The reported value for COP(=S)(OC)SCN1C(=O)c2ccccc2C1=O in terms of growth AUC is 0.967

The reported value for CCOP(=O)(OCC)O/C(=C\Cl)c1ccc(Cl)cc1Cl in terms of growth AUC is 0.899

----------
System: Collinsella aerofaciens
Test: growth AUC relative to DMSO control (median of replicates) (fraction); higher = more growth (less inhibition), active = hit call of the paper
Settings: 20 µM; 24 h
Everything with growth AUC lower than 1 is NOT MET; everything else, including exactly 1, is MET.

Before answering, review these 5 worked examples.
>>> df
                                   molecule  assigned_category
0        Clc1ccc(C(c2ccc(Cl)cc2)C(Cl)Cl)cc1            NOT MET
1          Clc1ccccc1-c1nnc(-c2ccccc2Cl)nn1            NOT MET
2     O=P(OC(CCl)CCl)(OC(CCl)CCl)OC(CCl)CCl            NOT MET
3  C#CCN1C(=O)COc2cc(F)c(N3C(=O)C4=C(CCCC4)C3=O)cc21            NOT MET
4  COP(=O)(OC)OC(Br)C(Cl)(Cl)Br (centres undefined)                MET

Confirm if growth AUC reported for the molecule COC(=O)Nc1cccc(OC(=O)Nc2cccc(C)c2)c1 is 1 or above.
NOT MET

Confirm if growth AUC reported for the molecule CCc1cccc(C)c1N(C(=O)CCl)[C@@H](C)COC is 1 or above.
NOT MET

Confirm if growth AUC reported for the molecule CC(C)(COCc1cccc(Oc2ccccc2)c1)c1ccc(OC(F)(F)Br)cc1 is 1 or above.
NOT MET

Confirm if growth AUC reported for the molecule C[C@@H](Oc1ccc(Oc2ccc(C(F)(F)F)cn2)cc1)C(=O)O is 1 or above.
NOT MET

Confirm if growth AUC reported for the molecule ClC1=C(Cl)C2(Cl)[C@H]3[C@H]4O[C@H]4[C@H](Cl)[C@H]3C1(Cl)C2(Cl)Cl (single isomer, unassigned; isomer a) is 1 or above.
NOT MET

Confirm if growth AUC reported for the molecule O=c1oc2ccccc2c(O)c1C(CC(O)c1ccc(-c2ccc(Br)cc2)cc1)c1ccccc1 (centres undefined) is 1 or above.
NOT MET

Confirm if growth AUC reported for the molecule O=c1oc2ccccc2c(O)c1C1CC(c2ccc(-c3ccc(Br)cc3)cc2)Cc2ccccc21 (centres undefined) is 1 or above.
NOT MET

Confirm if growth AUC reported for the molecule CC1(C)C(C=C(Cl)Cl)C1C(=O)OC(C#N)c1cccc(Oc2ccccc2)c1 (mixture of isomers) is 1 or above.
NOT MET

Confirm if growth AUC reported for the molecule COP(=S)(OC)Oc1ccc([N+](=O)[O-])c(Cl)c1 is 1 or above.
NOT MET

Confirm if growth AUC reported for the molecule Nc1cc(Cl)cc(C(=O)O)c1Cl is 1 or above.
MET

Confirm if growth AUC reported for the molecule N#Cc1cc(I)c(O)c(I)c1 is 1 or above.
MET

Confirm if growth AUC reported for the molecule CC1(C)C(C=C(Cl)Cl)[C@@H]1C(=O)O[C@@H](C#N)c1ccc(F)c(Oc2ccccc2)c1 (some centres undefined) is 1 or above.
NOT MET

Confirm if growth AUC reported for the molecule Oc1c(Cl)ccc(Cl)c1Cl is 1 or above.
NOT MET
